Target: T1, HLA-A*0201 molecule expressed on human T2 cells (human)
T1 construct: also called HLA-A2
Experiment: T2 cells (HLA-A*0201), peptide titration, anti-HLA-A2 flow cytometry
Classify as follows. Reported concentration of peptide that induces 20% of HLA-A2 expression greater than or equal to 5 µM: T. Reported concentration of peptide that induces 20% of HLA-A2 expression below: F.

IN: Could you verify whether the entry ILIPAGIYL [MS4A1-B3] shows concentration of peptide that induces 20% of HLA-A2 expression of no less than 5 µM?
OUT: F

IN: Could you verify whether the entry YVFEHPELL [CD22-B11] shows concentration of peptide that induces 20% of HLA-A2 expression of no less than 5 µM?
OUT: F

IN: Could you verify whether the entry LLVGILHLV [CD19-B1] shows concentration of peptide that induces 20% of HLA-A2 expression of no less than 5 µM?
OUT: F

IN: Could you verify whether the entry LMIPAGIYA [MS4A1-H3] shows concentration of peptide that induces 20% of HLA-A2 expression of no less than 5 µM?
OUT: F

IN: Could you verify whether the entry LLFGAPALL (also called TNFRSF13-H1) [TNFRSF13C-H1] shows concentration of peptide that induces 20% of HLA-A2 expression of no less than 5 µM?
OUT: T

IN: Could you verify whether the entry ILPGLLFGL [TNFRSF13C-B31] shows concentration of peptide that induces 20% of HLA-A2 expression of no less than 5 µM?
OUT: F

IN: Could you verify whether the entry GLAFVPLQI [CD37-H1] shows concentration of peptide that induces 20% of HLA-A2 expression of no less than 5 µM?
OUT: T

IN: Could you verify whether the entry LQMGGFYLL [CD19-B7] shows concentration of peptide that induces 20% of HLA-A2 expression of no less than 5 µM?
OUT: T

IN: Could you verify whether the entry LMFGAPALV [TNFRSF13C-B1] shows concentration of peptide that induces 20% of HLA-A2 expression of no less than 5 µM?
OUT: F

IN: Could you verify whether the entry TLLFLTPML [CD19-B2] shows concentration of peptide that induces 20% of HLA-A2 expression of no less than 5 µM?
OUT: F

IN: Could you verify whether the entry YILGGLLMV [MS4A1-B12] shows concentration of peptide that induces 20% of HLA-A2 expression of no less than 5 µM?
OUT: T

IN: Could you verify whether the entry AMNSLSLYI [MS4A1-B4] shows concentration of peptide that induces 20% of HLA-A2 expression of no less than 5 µM?
OUT: T
